Molecular target: human cyclin D1-CDK4 (Homo sapiens, UniProt P11802)
Sequence (P11802 whole entry): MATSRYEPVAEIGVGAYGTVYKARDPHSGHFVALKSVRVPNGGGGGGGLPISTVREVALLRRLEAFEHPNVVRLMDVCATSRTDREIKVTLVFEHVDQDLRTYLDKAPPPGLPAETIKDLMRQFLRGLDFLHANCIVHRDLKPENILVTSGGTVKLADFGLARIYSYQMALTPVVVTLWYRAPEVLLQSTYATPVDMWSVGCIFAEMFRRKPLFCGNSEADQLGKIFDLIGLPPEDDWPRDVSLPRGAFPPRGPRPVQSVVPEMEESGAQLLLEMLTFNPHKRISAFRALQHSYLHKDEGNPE
Sequence (P24385 whole entry partner): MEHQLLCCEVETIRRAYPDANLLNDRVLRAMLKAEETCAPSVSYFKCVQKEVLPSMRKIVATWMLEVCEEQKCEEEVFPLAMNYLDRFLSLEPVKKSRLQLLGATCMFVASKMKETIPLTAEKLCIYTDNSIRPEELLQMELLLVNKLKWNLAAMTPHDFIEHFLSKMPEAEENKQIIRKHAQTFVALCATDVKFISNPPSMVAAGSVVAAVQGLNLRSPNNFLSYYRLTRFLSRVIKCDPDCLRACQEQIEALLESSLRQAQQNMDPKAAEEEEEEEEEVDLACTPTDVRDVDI
Test: FlashPlate kinase assay, cyclin D1-CDK4
Type: biochemical
Settings: Rb protein substrate, 1 μM ATP, 33P-ATP, 30 minutes room temperature; read-out: CDK4 IC50
parameter: IC50 (µM)

Some molecules with recorded IC50:
Query: What value of IC50 has been reported for the following molecule? COc1ccc(C(=O)c2sc(Nc3ccc(N4CCC(N5CCCC(O)C5)CC4)cc3)nc2N)cc1F (stereo not shown) [Example 36]
Result: 3.63

Query: Given Nc1nc(Nc2ccc(N3CCC(N4CCCC4)CC3)cc2)sc1C(=O)c1ccc(F)c(F)c1 [Example 68] , state its recorded IC50.
Result: 0.089

Query: For the molecule shown here, CN(C)C1CCN(c2ccc(Nc3nc(N)c(C(=O)c4ccc(Cl)c(Cl)c4)s3)cc2)CC1 [Example 85] , give the reported IC50.
Result: 0.098

Query: Please give the measured IC50 for this molecule: Nc1nc(Nc2ccc(N3CCC(N4CCOCC4)CC3)cc2)sc1C(=O)c1ccc2c(c1)OCCO2 [Example 98]
Result: 0.039

Query: Name the recorded IC50 for Nc1nc(Nc2ccc(N3CCC(N4CCCC4)CC3)cc2)sc1C(=O)c1ccc(F)cc1 [Example 70] .
Result: 0.186

Query: Bench note: what IC50 did CCNC1CCN(c2ccc(Nc3nc(N)c(C(=O)c4cccc(F)c4)s3)cc2)C1 (stereo not shown) [Example 132] show?
Result: 0.029

Query: What measured IC50 goes with CCNC1CCN(c2ccc(Nc3nc(N)c(C(=O)c4cccc(OC)c4)s3)cc2)CC1 [Example 135] ?
Result: 0.028

Query: I'd like to know its IC50. The molecule in question is CN(C)C1CCN(c2ccc(Nc3nc(N)c(C(=O)c4cccc(C#N)c4)s3)cc2)CC1 [Example 88]
Result: 0.015

[1] COc1ccc(C(=O)c2sc(Nc3ccc(N4CCC(N5CCCC5)CC4)cc3)nc2N)cc1F [Example 23]
[2] CCNC1CCN(c2ccc(Nc3nc(N)c(C(=O)c4ccc(OC)c(F)c4)s3)cc2)CC1 [Example 136]
[3] Nc1nc(Nc2ccc(N3CCC(N4CCCC(O)C4)CC3)cc2)sc1C(=O)c1ccc(C(=O)O)cc1 (stereo not shown) [Example 79]
Query: Endpoint returns the given molecules ordered by ascending IC50. # list labels per requested ordering
Result: 1, 2, 3
(1: 0.012 µM, 2: 0.05 µM, 3: 0.4 µM)

[P] CCc1cccc(C(=O)c2sc(Nc3ccc(N4CCC(N5CCOCC5)CC4)cc3)nc2N)c1 [Example 116]
[Q] Cc1cccc(C(=O)c2sc(Nc3ccc(N4CCC(N(C)C)CC4)cc3)nc2N)c1 [Example 110]
[R] CN(C)C1CCN(c2ccc(Nc3nc(N)c(C(=O)c4ccc(Cl)c([N+](=O)[O-])c4)s3)cc2)CC1 [Example 87]
Query: Put the items in sequence by IC50, from largest down. Give your ranking as a list of the labels in the requested order.
Result: R, Q, P

[A] COc1cccc(C(=O)c2sc(Nc3ccc(N4CCC(N5CCCC5)CC4)cc3)nc2N)c1 [Example 27]
[B] Nc1nc(Nc2ccc(N3CCC(N4CCCC4)CC3)cc2)sc1C(=O)c1cccc(C2CC2)c1 [Example 119]
Query: Form field 'greater IC50' accepts A or B ; which applies? Use the label to indicate which entry you chose.
Result: A

---

Target: human cyclin E-CDK2 (Homo sapiens)
parameter: IC50 (µM)

Previously resolved entries follow.
Query: Can you look up the measured IC50 of N#Cc1cccc(C(=O)c2sc(Nc3ccc(N4CCC(N5CCCC(O)C5)CC4)cc3)nc2N)c1 (stereo not shown) [Example 80] for me?
Result: 2.58

Query: What value of measured IC50 is listed for N#Cc1cccc(C(=O)c2sc(Nc3ccc(N4CCC(N5CCCCC5)CC4)cc3)nc2N)c1 [Example 64] ?
Result: 2.7

[1] Nc1nc(Nc2ccc(N3CCC(N4CCCC(O)C4)CC3)cc2)sc1C(=O)c1cccc(O)c1 (stereo not shown) [Example 81]
[2] Nc1nc(Nc2ccc(N3CCC(N4CCCC(O)C4)CC3)cc2)sc1C(=O)c1ccc(F)c(F)c1 (stereo not shown) [Example 75]
Query: Which has the smaller recorded IC50, 1 or 2 ? Let me know the label of the one you choose.
Result: 1
(1: 3.45 µM, 2: 8.68 µM)

---

Reported values: IC50 for human cyclin B-CDK1 (Homo sapiens), one per item.
parameter: IC50 (nM)

# annotated cases, reported IC50 shown
Query: Which IC50 is listed for CCNC1CCN(c2ccc(Nc3nc(N)c(C(=O)c4cccc(F)c4)s3)cc2)C1 (stereo not shown) ?
Result: 253

Query: Need IC50 of `COc1cccc(C(=O)c2sc(Nc3ccc(N4CCC(N5CCCCC5)CC4)cc3)nc2N)c1` , thanks.
Result: 1680

[A] CCCc1cc(C(=O)c2sc(Nc3ccc(N4CCC(N5CCCC5)CC4)cc3)nc2N)ccc1O
[B] CCNC1CCN(c2ccc(Nc3nc(N)c(C(=O)c4cccc(OC)c4)s3)cc2)C1 (stereo not shown)
Query: // compare: A vs B , metric IC50, want the smaller Lab log: write the label of the selected item as the result.
Result: A

---

The following compounds have recorded pIC50 on human cyclin E-CDK2 (Homo sapiens, UniProt P24941).
pIC50: −log10 of the molar value.
parameter: pIC50

Some solved cases for reference:
Query: GET /values?readout=pIC50&item= Nc1nc(Nc2ccc(N3CCC(N4CCCC(O)C4)CC3)cc2)sc1C(=O)c1ccc(O)cc1 (centres unmarked)
Result: 5.29

Query: Recorded pIC50 for `CCc1cccc(C(=O)c2sc(Nc3ccc(N4CCC(N5CCCCC5)CC4)cc3)nc2N)c1` , please?
Result: 6.00

Query: Bench note: what pIC50 did `CCNC1CCN(c2ccc(Nc3nc(N)c(C(=O)c4ccc(OC)c(F)c4)s3)cc2)CC1` show?
Result: 5.03

Query: For the compound `Nc1nc(Nc2ccc(N3CCC(N4CCCCC4)CC3)cc2)sc1C(=O)c1cccc(O)c1` , what pIC50 is on record?
Result: 5.47

Query: Field request: pIC50 | item: `Nc1nc(Nc2ccc(N3CCC(N4CCCC4)CC3)cc2)sc1C(=O)c1ccc(Cl)c([N+](=O)[O-])c1`
Result: 5.38

[1] Nc1nc(Nc2ccc(N3CCC(N4CCCCC4)CC3)cc2)sc1C(=O)c1ccc(Cl)c([N+](=O)[O-])c1
[2] COc1cccc(C(=O)c2sc(Nc3ccc(N4CCC(N5CCCCC5)CC4)cc3)nc2N)c1
Query: I would appreciate it if you could say which entry, 1 or 2 , has the lower pIC50 value. API: response body contains the label of the selected item.
Result: 1

[a] Nc1nc(Nc2ccc(N3CCC(N4CCCC4)CC3)cc2)sc1C(=O)c1ccc2c(c1)OCCO2
[b] Nc1nc(Nc2ccc(N3CCC(N4CCCCC4)CC3)cc2)sc1C(=O)c1cc(F)cc(F)c1
[c] CCc1cccc(C(=O)c2sc(Nc3ccc(N4CCC(N5CCOCC5)CC4)cc3)nc2N)c1
Query: Arrange these 3 compounds in increasing order of pIC50. Your reply should list the labels following the order given in the request.
Result: b, a, c
(b: 5.10, a: 5.37, c: 6.12)

---

Biological target: human cyclin D1-CDK4 (Homo sapiens)
Test: FlashPlate kinase assay, cyclin D1-CDK4
Format: biochemical
Conditions: Rb protein substrate, 1 μM ATP, 33P-ATP, 30 minutes room temperature; read-out: CDK4 IC50
parameter: IC50 (nM)

Query: Which IC50 is reported for this compound? `CN(C)C1CCN(c2ccc(Nc3nc(N)c(C(=O)c4ccc([N+](=O)[O-])cc4)s3)cc2)CC1`
Result: 74

[a] Nc1nc(Nc2ccc(N3CCC(N4CCCCC4)CC3)cc2)sc1C(=O)c1ccc(O)cc1
[b] COc1ccc(C(=O)c2sc(Nc3ccc(N4CCC(N(C)C)CC4)cc3)nc2N)cc1F
Query: Param metric = IC50; output whichever of a , b has the minimum value. Answer with the label corresponding to your selection.
Result: a

---

Biological target: human cyclin D1-CDK4 (Homo sapiens, UniProt P11802)
Assay: FlashPlate kinase assay, cyclin D1-CDK4
Type: biochemical
Conditions: Rb protein substrate, 1 μM ATP, 33P-ATP, 30 minutes room temperature; read-out: CDK4 IC50
parameter: IC50 (nM)

Query: I would be grateful if you could share the reported IC50 for `Nc1nc(Nc2ccc(N3CCC(N4CCCC4)CC3)cc2)sc1C(=O)c1ccc(Cl)c([N+](=O)[O-])c1` .
Result: 162

Query: Requested field: IC50. Item: `Nc1nc(Nc2ccc(N3CCC(N4CCCCC4)CC3)cc2)sc1C(=O)c1cccc([N+](=O)[O-])c1`
Result: 100

Query: Any idea what its IC50 is? The compound is `Nc1nc(Nc2ccc(N3CCC(N4CCCCC4)CC3)cc2)sc1C(=O)c1cc(F)cc(F)c1`
Result: 86

Query: Would you mind telling me what IC50 value was observed for `CN(C)C1CCN(c2ccc(Nc3nc(N)c(C(=O)c4ccc(F)cc4)s3)cc2)CC1` ?
Result: 114

Query: // query IC50 value for entry `CCOC(=O)c1cc2ccc(C(=O)c3sc(Nc4ccc(N5CCC(N6CCCC6)CC5)cc4)nc3N)cc2[nH]1`
Result: 67

[P] Nc1nc(Nc2ccc(N3CCC(N4CCCC(O)C4)CC3)cc2)sc1C(=O)c1cc(F)cc(F)c1 (centres unmarked)
[Q] Nc1nc(Nc2ccc(N3CCC(N4CCCC(O)C4)CC3)cc2)sc1C(=O)c1ccc(O)cc1 (centres unmarked)
Query: Hi, I'm comparing two records. Which one has the lower IC50, P or Q ? Provide the label of your selected option as the answer.
Result: Q
